# System: HT29 RAMS11 overexpressing cells
# Test Protocol: High-throughput viability assay (resazurin), 119 FDA-approved anticancer drugs, RAMS11 overexpressing cells (Clone1, Clone2)
# Assay Setup: OE1 (RAMS11 overexpression clone 1), 0.1 uM drug, 72 h, vs empty vector control
Each entry below carries its recorded Viability Fold Change.
Give your answer as a number; write no unit.

Examples from the recorded data:
[[record]]
compound = "COC(=O)C[C@](O)(CCCC(C)(C)O)C(=O)O[C@@H]1C(OC)=C[C@]23CCCN2CCc2cc4c(cc2[C@H]13)OCO4 [Omacetaxine mepesuccinate]"
metric = "Viability Fold Change"
number = 1.354

[[record]]
compound = "CNC(=O)c1ccccc1Sc1ccc2c(/C=C/c3ccccn3)n[nH]c2c1"
metric = "Viability Fold Change"
number = 0.9514


The recorded Viability Fold Change for COc1nc(N)nc2c1ncn2[C@@H]1O[C@H](CO)[C@@H](O)[C@@H]1O is 0.9819

The recorded Viability Fold Change for O=P1(NCCCl)OCCCN1CCCl (centres unmarked) [Ifosfamide] is 0.9167
